System: HCMV recombinant mutant virus (RV145)
ASSAY_NAME: microbe, parasite or virus in culture
Format: cell-based, human cytomegalovirus
ASSAY_CONTEXT: Human betaherpesvirus 5, read-out: IC50 ug/ml HCMV, HCMV
Listed here: items and their measured IC50.

INSERT INTO measurements (compound, result) VALUES
  ('O=C(Nc1ccc(NC(=S)NC(CO)c2ccccc2)cc1)c1ccccc1F (stereo not drawn) [Example 797]', '> 10 µg/mL');

Which IC50 value is on record for CC(NC(=S)Nc1ccc(NC(=O)c2cc3ccccc3o2)cc1)c1ccc(F)cc1 (stereo not drawn) [Example 980] ?
> 10 µg/mL

Which IC50 value belongs to O=C(Nc1ccc(NC(=S)Nc2cccc(F)c2)cc1)c1ccccc1F [Example 962] ?
> 10 µg/mL

Can you look up the measured IC50 of COc1cc(OC)c(NC(=S)Nc2ccc(NC(=O)c3ccccc3Br)cc2)cc1Cl [Example 142] for me?
10 µg/mL

IC50 for Nc1ccc(C(F)(F)F)cc1NC(=S)Nc1ccc(NC(=O)c2ccccc2F)cc1 [Example 999] ?
4 µg/mL

Item under review: O=C(Nc1ccc(NC(=S)Nc2cc(Cl)c(Cl)c(Cl)c2)cc1)c1ccccc1F [Example 937] . Reported IC50?
2 µg/mL

Data request, read-out IC50, for O=C(O)c1cccc(NC(=S)Nc2ccc(NC(=O)c3ccccc3F)cc2)c1 [Example 963]
> 10 µg/mL

What does the record list as IC50 for CC(NC(=S)Nc1ccc(NC(=O)c2ccc(C(F)(F)F)cc2)cc1)c1ccc(F)cc1 (stereo not drawn) [Example 1021] ?
> 10 µg/mL

###

# maps each entry to its IC50 ug/ml HCMV
System: HCMV recombinant mutant virus (RV145)
ASSAY_NAME: microbe, parasite or virus in culture
Type: cell-based, human cytomegalovirus
ASSAY_CONTEXT: HCMV

INSERT INTO results (compound, result) VALUES
  ('COc1cc(OC)c(NC(=S)Nc2ccc(NC(=O)c3cccc(F)c3)cc2)cc1Cl [Example 117]', '3 µg/mL'),
  ('COc1cc(OC)c(NC(=S)Nc2ccc(NC(=O)c3ccccc3Cl)cc2)cc1Cl [Example 141]', '6 µg/mL'),
  ('Nc1nccc(-c2ccc(NC(=S)Nc3ccc(NC(=O)c4ccccc4F)cc3)cc2Cl)n1 [Example 502]', '1.8 µg/mL'),
  ('CC(NC(=S)Nc1ccc(NC(=O)c2ccccc2F)cc1)c1ccc(S(=O)(=O)N2CCCCC2)cc1 (centres unmarked) [Example 1009]', '>10 µg/mL'),
  ('O=C(Nc1ccc(NC(=S)NCCSc2cccc(Br)c2)cc1)c1ccccc1F [Example 680]', '>0.5 µg/mL'),
  ('COc1cc(OC)c(NC(=S)Nc2ccc(NC(=O)c3ccccc3OC)cc2)cc1Cl [Example 119]', '> 10 µg/mL'),
  ('O=C(Nc1ccc(NC(=S)Nc2ccc3[nH]nnc3c2)cc1)c1c(F)cccc1F [Example 527]', '>10 µg/mL');

Continue with the next compound.
What value of IC50 ug/ml HCMV has been recorded for this entry: COc1cccc(C(C)NC(=S)Nc2ccc(NC(=O)c3ccccc3F)cc2)c1 (centres unmarked) [Example 789]
>2.2 µg/mL

###

Test system: VZV strain Ellen
ASSAY_NAME: VZV Antiviral (ELISA) Assay in human foreskin fibroblast cells
Type: cell-based, varicella-zoster virus
ASSAY_CONTEXT: Human alphaherpesvirus 3, Fibroblast, read-out: IC50 (ug/ml) VZV
ASSAY_METRIC: IC50 (µg/mL)
State the answer as a number, implicitly in µg/mL.

Example cases with answers are listed next.
INSERT INTO measurements (compound, recorded_number) VALUES
  ('COCCOc1ccc(NC(=S)Nc2ccc(NC(=O)c3ccccc3F)cc2)cc1Cl', 10),
  ('CC(NC(=S)Nc1ccc(NC(=O)c2cnc3ccccc3c2)cc1)c1ccc(F)cc1 (centres unmarked)', 3.4),
  ('CC(NC(=S)Nc1ccc(NC(=O)c2nccc3ccccc23)cc1)c1ccc(Br)cc1 (centres unmarked)', 0.04),
  ('CC(NC(=S)Nc1ccc(NC(=O)c2nccc3ccccc23)cc1)c1cc2ccccc2o1 (centres unmarked)', 0.05),
  ('CC(NC(=S)Nc1ccc(NC(=O)c2cc3ccccc3cn2)cc1)c1ccc(C#N)cc1 (centres unmarked)', 0.05);

Recorded IC50 for CC(NC(=S)Nc1ccc(NC(=O)c2cc3ccccc3o2)cc1)c1cc2ccccc2o1 (centres unmarked) , please?
0.2

Entry COc1cccc(C(=O)Nc2ccc(NC(=S)Nc3ccc(OC)c(Cl)c3)cc2)c1 has what IC50?
2.5

Could you share which IC50 value was measured for COc1ccccc1C(=O)Nc1ccc(NC(=S)NC(C)c2ccc(C#N)cc2)cc1 (centres unmarked) ?
0.3
